Test: Double-blind, placebo controlled, ascending single dose pharmacokinetic study of oral DPC 333 in healthy subjects
Assay type: in vivo, human
Conditions: both sexes, human, plasma; single oral dose 15 mg, healthy volunteers, n = 6; read-out: C12 (plasma concentration at 12 hours) Mean
PROPERTY NAME: concentration at 12 h (nM)
Numbers only, in nM.

Exercise: Quick one: concentration at 12 h for Cc1cc(COc2ccc([C@]3(N)CCN([C@H](CC(C)C)C(=O)NO)C3=O)cc2)c2ccccc2n1 ?
Key: 2.09

----------
Assay: Double-blind, placebo controlled, ascending single dose pharmacokinetic study of oral DPC 333 in healthy subjects
Format: in vivo, human
Details: both sexes, human, plasma, oral; single dose of 345 mg; read-out: mean time of maximum plasma concentration (Tmax), range
PROPERTY NAME: Tmax

Exercise: Quick one: Tmax for Cc1cc(COc2ccc([C@]3(N)CCN([C@H](CC(C)C)C(=O)NO)C3=O)cc2)c2ccccc2n1 ?
Key: 15 to 60 min

----------
Assay: Double-blind, placebo controlled, ascending single dose pharmacokinetic study of oral DPC 333 in healthy subjects
Type: in vivo, human
Details: both sexes, human, plasma; single oral dose 25 mg, healthy volunteers, n = 6
PROPERTY NAME: AUC(0-inf) (µM·h)
Numbers only, in µM·h.

Exercise: Quick one: AUC(0-inf) for Cc1cc(COc2ccc([C@]3(N)CCN([C@H](CC(C)C)C(=O)NO)C3=O)cc2)c2ccccc2n1 [DPC 333] ?
Key: 0.676

----------
Assay: Double-blind, placebo controlled, ascending single dose pharmacokinetic study of oral DPC 333 in healthy subjects
Assay type: in vivo, human
Conditions: both sexes, human, plasma; single oral dose 530 mg, healthy volunteers, n = 6; read-out: Tmax Median
PROPERTY NAME: Tmax (min)
One number for each entry, in min.

Exercise: Quick one: Tmax for Cc1cc(COc2ccc([C@]3(N)CCN([C@H](CC(C)C)C(=O)NO)C3=O)cc2)c2ccccc2n1 ?
Key: 30

----------
Experiment: Double-blind, placebo controlled, ascending single dose pharmacokinetic study of oral DPC 333 in healthy subjects
Assay type: in vivo, human
Conditions: both sexes, human, plasma, oral; single dose of 80 mg; read-out: mean AUC from time zero to time infinity, range
PROPERTY NAME: AUC

Exercise: Quick one: AUC for Cc1cc(COc2ccc([C@]3(N)CCN([C@H](CC(C)C)C(=O)NO)C3=O)cc2)c2ccccc2n1 ?
Key: 2.25 to 4.16 µM·h

----------
Test: Double-blind, placebo controlled, ascending single dose pharmacokinetic study of oral DPC 333 in healthy subjects
Format: in vivo, human
Conditions: both sexes, human, plasma, oral; single dose of 40 mg; read-out: mean time of maximum plasma concentration (Tmax), range
PROPERTY NAME: Tmax

Exercise: Quick one: Tmax for Cc1cc(COc2ccc([C@]3(N)CCN([C@H](CC(C)C)C(=O)NO)C3=O)cc2)c2ccccc2n1 [DPC 333] ?
Key: 15 to 60 min

----------
Experiment: Double-blind, placebo controlled, ascending single dose pharmacokinetic study of oral DPC 333 in healthy subjects
Assay type: in vivo, human
Details: both sexes, human, plasma, oral; single dose of 225 mg; upper limit in μM; read-out: mean maximum plasma concentration (Cmax), range
PROPERTY NAME: Cmax

Exercise: Quick one: Cmax for Cc1cc(COc2ccc([C@]3(N)CCN([C@H](CC(C)C)C(=O)NO)C3=O)cc2)c2ccccc2n1 ?
Key: 2.62 to 3.65 µM

FYI, the data here is from patent US20030232079A1.
